Origin of values: patent US20130053430A1

- Tested on: human CETP mRNA
- assay_remarks: Liver CETP mRNA in huCETP transgenic mice, normal chow (Example 5)
- Format: in vivo
- reported_conditions: 50 mg/kg i.p. twice per week for 6 weeks, relative to PBS control
e = 2'-O-(2-methoxyethyl) (MOE); d = 2'-deoxy (DNA)
Provide the reported Percent inhibition of liver CETP mRNA expression, Combined primer probe sets of each item.
Numbers only, in %.

Field: example entries. Status: answers known.
ISIS 349511: 5-10-5 MOE gapmer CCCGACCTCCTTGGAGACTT (sugars from the 5' end e5 d10 e5, backbone and methylation of C not given here) ... 88
ISIS 349517: 5-10-5 MOE gapmer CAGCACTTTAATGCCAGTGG (sugars from the 5' end e5 d10 e5, backbone and methylation of C not given here) ... 97
ISIS 349512: 5-10-5 MOE gapmer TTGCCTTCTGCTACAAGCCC (sugars from the 5' end e5 d10 e5, backbone and methylation of C not given here) ... 95

Consider the record given below.
Record ISIS 349515: 5-10-5 MOE gapmer AACTTCCACCACGCTGGAGG (sugars from the 5' end e5 d10 e5, backbone and methylation of C not given here) . Reported Percent inhibition of liver CETP mRNA expression, Combined primer probe sets: 57

====

Hi there, I'd appreciate the recorded % inhibition for every entry that follows.
- System: human CETP mRNA
- assay_remarks: Antisense inhibition of human CETP mRNA in SW872 liposarcoma cells (Example 1)
- Type: cell-based
- reported_conditions: 150 nM antisense oligonucleotide, lipofectin, ~24 hours, relative to untreated control cells
- Description: Antisense oligonucleotides targeted to a CETP nucleic acid were tested for their effect on CETP mRNA transcript in vitro. […] After approximately 24 hours, RNA was isolated from the cells and CETP mRNA levels were measured by quantitative real-time PCR. A human primer probe set (forward sequence […], designated herein as SEQ ID NO: 38; reverse sequence GGCTCACGCCTTTGCTGTT, designated herein as SEQ ID NO: 39; probe sequence […], designated herein as SEQ ID NO: 40) was used to quantitate CETP mRNA. […]
Strand notation (5' to 3'): a small letter for the sugar, then the base; units joined by * are phosphorothioate-linked, units joined directly phosphodiester-linked; [ ] holds rarer units or linkages, { } end groups; capitals alone tell only the bases. e = 2'-O-(2-methoxyethyl) (MOE); [5mC] = 5-methylcytosine; d = 2'-deoxy (DNA)
# output: numeric value plus its unit

Worked examples follow.
ISIS 349476: 5-10-5 MOE gapmer CCTTCAGGACCAGCTTCAGG (e[5mC]*e[5mC]*eT*eT*e[5mC]*dA*dG*dG*dA*d[5mC]*d[5mC]*dA*dG*d[5mC]*dT*eT*e[5mC]*eA*eG*eG) ... 59%
ISIS 349496: 5-10-5 MOE gapmer ACAGAATGTTGCTGGTCTGG (eA*e[5mC]*eA*eG*eA*dA*dT*dG*dT*dT*dG*d[5mC]*dT*dG*dG*eT*e[5mC]*eT*eG*eG) ... 69%
ISIS 349467: 5-10-5 MOE gapmer GTGGTGTAGCCATACTTCAG (eG*eT*eG*eG*eT*dG*dT*dA*dG*d[5mC]*d[5mC]*dA*dT*dA*d[5mC]*eT*eT*e[5mC]*eA*eG) ... 35%

// below: % inhibition requested for another substance
// field: % inhibition; key: ISIS 349492: 5-10-5 MOE gapmer GGCATCTTGAGGCAGTGGAC (antisense eG*eG*e[5mC]*eA*eT*d[5mC]*dT*dT*dG*dA*dG*dG*d[5mC]*dA*dG*eT*eG*eG*eA*e[5mC]) ; value = 39%

====

I'd appreciate it if you could supply Glucose levels values for the items below.
- assay_remarks: Plasma glucose in huCETP transgenic mice (Example 5)
- Type: in vivo
- reported_conditions: 50 mg/kg i.p. twice per week, week 6
e = 2'-O-(2-methoxyethyl) (MOE); d = 2'-deoxy (DNA)
Kindly report the value followed by its unit.

Sample answers from the record:
ISIS 349511: 5-10-5 MOE gapmer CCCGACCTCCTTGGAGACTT (sugars from the 5' end e5 d10 e5, backbone and methylation of C not given here) ... 245 mg/dL
ISIS 349515: 5-10-5 MOE gapmer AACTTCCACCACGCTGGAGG (sugars from the 5' end e5 d10 e5, backbone and methylation of C not given here) ... 237 mg/dL
ISIS 349517: 5-10-5 MOE gapmer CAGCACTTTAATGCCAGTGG (sugars from the 5' end e5 d10 e5, backbone and methylation of C not given here) ... 254 mg/dL

Data point: ISIS 349512: 5-10-5 MOE gapmer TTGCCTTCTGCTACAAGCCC (sugars from the 5' end e5 d10 e5, backbone and methylation of C not given here) ; Glucose levels = 248 mg/dL

====

- System: human CETP mRNA
- assay_remarks: Liver CETP mRNA in huCETP transgenic mice, normal chow (Example 5)
- Format: in vivo
- reported_conditions: 50 mg/kg i.p. twice per week for 6 weeks, relative to PBS control
e = 2'-O-(2-methoxyethyl) (MOE); d = 2'-deoxy (DNA)
value_kind: Percent inhibition of liver CETP mRNA expression, Primer probe set hCETP (%)
One number for each entry, in %.

Take a look at these entries with their results.
ISIS 349512: 5-10-5 MOE gapmer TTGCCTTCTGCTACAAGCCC (sugars from the 5' end e5 d10 e5, backbone and methylation of C not given here) ... 96
ISIS 349511: 5-10-5 MOE gapmer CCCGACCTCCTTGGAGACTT (sugars from the 5' end e5 d10 e5, backbone and methylation of C not given here) ... 90
ISIS 349515: 5-10-5 MOE gapmer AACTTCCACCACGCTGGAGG (sugars from the 5' end e5 d10 e5, backbone and methylation of C not given here) ... 63

Note: attention shifts to another entry.
// field: Percent inhibition of liver CETP mRNA expression, Primer probe set hCETP; key: ISIS 349517: 5-10-5 MOE gapmer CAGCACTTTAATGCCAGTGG (sugars from the 5' end e5 d10 e5, backbone and methylation of C not given here) ; value = 99

====

What percent inhibition of CETP was measured for each of the following?
- Tested on: human CETP mRNA
- assay_remarks: Dose-dependent antisense inhibition of human CETP in SW872 liposarcoma cells (Example 2)
- Type: cell-based
- reported_conditions: 300 nM, Lipofectin, ~16 hours (Example 2)
Strand notation (5' to 3'): a small letter for the sugar, then the base; units joined by * are phosphorothioate-linked, units joined directly phosphodiester-linked; [ ] holds rarer units or linkages, { } end groups; capitals alone tell only the bases. e = 2'-O-(2-methoxyethyl) (MOE); [5mC] = 5-methylcytosine; d = 2'-deoxy (DNA)
One number for each entry, in %.

ISIS 349465: 5-10-5 MOE gapmer GAGACATCAATGGACTTGGC (eG*eA*eG*eA*e[5mC]*dA*dT*d[5mC]*dA*dA*dT*dG*dG*dA*d[5mC]*eT*eT*eG*eG*e[5mC]) ... 96

Would you mind giving percent inhibition of CETP for every substance in the list below?
1. ISIS 349513: 5-10-5 MOE gapmer TCCAGCTGTGAGCCTGGTGC (eT*e[5mC]*e[5mC]*eA*eG*d[5mC]*dT*dG*dT*dG*dA*dG*d[5mC]*d[5mC]*dT*eG*eG*eT*eG*e[5mC])
2. ISIS 349483: 5-10-5 MOE gapmer CTCTGAGACATTCTTGTAGA (e[5mC]*eT*e[5mC]*eT*eG*dA*dG*dA*d[5mC]*dA*dT*dT*d[5mC]*dT*dT*eG*eT*eA*eG*eA)
3. ISIS 349490: 5-10-5 MOE gapmer CCTCTTGGAAGATTTCCTGG (e[5mC]*e[5mC]*eT*e[5mC]*eT*dT*dG*dG*dA*dA*dG*dA*dT*dT*dT*e[5mC]*e[5mC]*eT*eG*eG)
4. ISIS 349517: 5-10-5 MOE gapmer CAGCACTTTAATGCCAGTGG (sugars from the 5' end e5 d10 e5, backbone and methylation of C not given here)

Out:
1: 95; 2: 85; 3: 88; 4: 98

====

- System: human CETP mRNA
- assay_remarks: Antisense inhibition of human CETP mRNA in SW872 liposarcoma cells (Example 1)
- Assay type: cell-based
- reported_conditions: 150 nM antisense oligonucleotide, lipofectin, ~24 hours, relative to untreated control cells
Strand notation (5' to 3'): a small letter for the sugar, then the base; units joined by * are phosphorothioate-linked, units joined directly phosphodiester-linked; [ ] holds rarer units or linkages, { } end groups; capitals alone tell only the bases. e = 2'-O-(2-methoxyethyl) (MOE); [5mC] = 5-methylcytosine; d = 2'-deoxy (DNA)
Lab note: anything with % inhibition at or over 50% counts as 1; the rest go in -1.

ISIS 349490: 5-10-5 MOE gapmer CCTCTTGGAAGATTTCCTGG (e[5mC]*e[5mC]*eT*e[5mC]*eT*dT*dG*dG*dA*dA*dG*dA*dT*dT*dT*e[5mC]*e[5mC]*eT*eG*eG) ... 1
ISIS 349477: 5-10-5 MOE gapmer GATCTCTTTGCAGATCTGTC (eG*eA*eT*e[5mC]*eT*d[5mC]*dT*dT*dT*dG*d[5mC]*dA*dG*dA*dT*e[5mC]*eT*eG*eT*e[5mC]) ... -1
ISIS 349447: 5-10-5 MOE gapmer TATGTATGTCCGCCCAGCCC (eT*eA*eT*eG*eT*dA*dT*dG*dT*d[5mC]*d[5mC]*dG*d[5mC]*d[5mC]*d[5mC]*eA*eG*e[5mC]*e[5mC]*e[5mC]) ... -1
ISIS 349453: 5-10-5 MOE gapmer GCATTGCCCAGCAGGGCCAG (eG*e[5mC]*eA*eT*eT*dG*d[5mC]*d[5mC]*d[5mC]*dA*dG*d[5mC]*dA*dG*dG*eG*e[5mC]*e[5mC]*eA*eG) ... -1

In: Assess whether reported % inhibition for ISIS 349498: 5-10-5 MOE gapmer CTGGACGGTAGTCACGATAT (e[5mC]*eT*eG*eG*eA*d[5mC]*dG*dG*dT*dA*dG*dT*d[5mC]*dA*d[5mC]*eG*eA*eT*eA*eT) sits at 50% or higher.
Out: 1

In: Decide: % inhibition of ISIS 349450: 5-10-5 MOE gapmer GCAGTGGTGTGTAAGTGGCC (eG*e[5mC]*eA*eG*eT*dG*dG*dT*dG*dT*dG*dT*dA*dA*dG*eT*eG*eG*e[5mC]*e[5mC]) >= 50%?
Out: -1

In: Decide: is the reported value of % inhibition for ISIS 349500: 5-10-5 MOE gapmer ACAGTCTTTGGTGTAATCTG (eA*e[5mC]*eA*eG*eT*d[5mC]*dT*dT*dT*dG*dG*dT*dG*dT*dA*eA*eT*e[5mC]*eT*eG) equal to or greater than 50%?
Out: 1

In: // inclusive: % inhibition at least 50%? input: ISIS 349454: 5-10-5 MOE gapmer GTGCCTTTGGAGCAGGCATG (eG*eT*eG*e[5mC]*e[5mC]*dT*dT*dT*dG*dG*dA*dG*d[5mC]*dA*dG*eG*e[5mC]*eA*eT*eG)
Out: -1

In: Form field: % inhibition at least 50%? Entry: ISIS 349479: 5-10-5 MOE gapmer CTGGCAGCCCTTGTCTGGAC (e[5mC]*eT*eG*eG*e[5mC]*dA*dG*d[5mC]*d[5mC]*d[5mC]*dT*dT*dG*dT*d[5mC]*eT*eG*eG*eA*e[5mC])
Out: 1

In: Record ISIS 349478: 5-10-5 MOE gapmer ATGATGTTAGAGATGACGTT (eA*eT*eG*eA*eT*dG*dT*dT*dA*dG*dA*dG*dA*dT*dG*eA*e[5mC]*eG*eT*eT) ; criterion: % inhibition no lower than 50%. Met?
Out: -1

In: Determine whether this substance has % inhibition no lower than 50%: ISIS 349459: 5-10-5 MOE gapmer CTTCTCGCCCGTGATATCTG (e[5mC]*eT*eT*e[5mC]*eT*d[5mC]*dG*d[5mC]*d[5mC]*d[5mC]*dG*dT*dG*dA*dT*eA*eT*e[5mC]*eT*eG)
Out: 1

In: Does the reported % inhibition for ISIS 349471: 5-10-5 MOE gapmer GTCAGCTGTGTGTTGATCTG (eG*eT*e[5mC]*eA*eG*d[5mC]*dT*dG*dT*dG*dT*dG*dT*dT*dG*eA*eT*e[5mC]*eT*eG) fall at or above the 50% mark?
Out: -1

In: Check the entry ISIS 133837: 5-10-5 MOE gapmer TCCACCAGCAGGTGCTCAGG (eT*e[5mC]*e[5mC]*eA*e[5mC]*d[5mC]*dA*dG*d[5mC]*dA*dG*dG*dT*dG*d[5mC]*eT*e[5mC]*eA*eG*eG) : does % inhibition equal or exceed 50%?
Out: 1

In: // inclusive: % inhibition at least 50%? input: ISIS 349513: 5-10-5 MOE gapmer TCCAGCTGTGAGCCTGGTGC (eT*e[5mC]*e[5mC]*eA*eG*d[5mC]*dT*dG*dT*dG*dA*dG*d[5mC]*d[5mC]*dT*eG*eG*eT*eG*e[5mC])
Out: 1

In: // inclusive: % inhibition at least 50%? input: ISIS 349455: 5-10-5 MOE gapmer CGATGCCTGCCTCGTGCGAG (e[5mC]*eG*eA*eT*eG*d[5mC]*d[5mC]*dT*dG*d[5mC]*d[5mC]*dT*d[5mC]*dG*dT*eG*e[5mC]*eG*eA*eG)
Out: -1

In: Threshold query (% inhibition >= 50%) on ISIS 349460: 5-10-5 MOE gapmer GCATCATGGCCTTCTCGCCC (eG*e[5mC]*eA*eT*e[5mC]*dA*dT*dG*dG*d[5mC]*d[5mC]*dT*dT*d[5mC]*dT*e[5mC]*eG*e[5mC]*e[5mC]*e[5mC])
Out: 1

In: Exam item: decide whether the reported % inhibition for ISIS 349484: 5-10-5 MOE gapmer ACCAGAAGTACAGCATGCGG (eA*e[5mC]*e[5mC]*eA*eG*dA*dA*dG*dT*dA*d[5mC]*dA*dG*d[5mC]*dA*eT*eG*e[5mC]*eG*eG) is at least 50%.
Out: -1

In: Test whether the substance ISIS 349516: 5-10-5 MOE gapmer CATCTCCGTACTCCTAACCC (e[5mC]*eA*eT*e[5mC]*eT*d[5mC]*d[5mC]*dG*dT*dA*d[5mC]*dT*d[5mC]*d[5mC]*dT*eA*eA*e[5mC]*e[5mC]*e[5mC]) records % inhibition of 50% or higher.
Out: 1

In: Is it the case that ISIS 349446: 5-10-5 MOE gapmer GGAACATGAGGCTCTTCCGG (eG*eG*eA*eA*e[5mC]*dA*dT*dG*dA*dG*dG*d[5mC]*dT*d[5mC]*dT*eT*e[5mC]*e[5mC]*eG*eG) has % inhibition reaching or exceeding 50%?
Out: -1
